- Test system: RIVA
- METHOD: growth inhibition by drug alone (1 - RLU/untreated control) (fraction); higher = stronger inhibition
- CONDITION_DETAILS: 10 nM; time (day): 5; 177Lu-lilotomab satetraxetan 0 ug/ml
Counter-ions that a name gives are not always drawn.
Would you mind labelling by growth inhibition by drug alone? At or over -0.1 is condition met, under is condition not met.

INPUT: State whether the measured growth inhibition by drug alone reaches -0.1, counting equality as reaching it, for `Nc1ccc(-c2ccc3ncc4ccc(=O)n(-c5cccc(C(F)(F)F)c5)c4c3c2)cn1`
OUTPUT: condition met

INPUT: State whether the measured growth inhibition by drug alone reaches -0.1, counting equality as reaching it, for COc1cccc2c1C(=O)c1c(O)c3c(c(O)c1C2=O)C[C@@](O)(C(C)=O)C[C@@H]3O[C@H]1C[C@H](N)[C@H](O)[C@H](C)O1 [Daunorubicin HCl (Daunomycin HCl)]
OUTPUT: condition met

INPUT: State whether the measured growth inhibition by drug alone reaches -0.1, counting equality as reaching it, for O=C(CCCCCCC(=O)Nc1ccccc1)NO [Vorinostat (SAHA)]
OUTPUT: condition not met

INPUT: State whether the measured growth inhibition by drug alone reaches -0.1, counting equality as reaching it, for `Oc1ccc(Nc2nc(-c3ccc(Cl)cc3)cs2)cc1`
OUTPUT: condition not met

INPUT: State whether the measured growth inhibition by drug alone reaches -0.1, counting equality as reaching it, for COc1cc(Nc2c(C#N)cnc3cc(OCCCN4CCN(C)CC4)c(OC)cc23)c(Cl)cc1Cl [Bosutinib (SKI-606)]
OUTPUT: condition not met

INPUT: State whether the measured growth inhibition by drug alone reaches -0.1, counting equality as reaching it, for `C=CC(=O)N1CCC[C@@H](n2nc(-c3ccc(Oc4ccccc4)cc3)c3c(N)ncnc32)C1`
OUTPUT: condition met

INPUT: State whether the measured growth inhibition by drug alone reaches -0.1, counting equality as reaching it, for `Nc1cc(C(F)(F)F)c(-c2cc(N3CCOCC3)nc(N3CCOCC3)n2)cn1`
OUTPUT: condition not met

INPUT: State whether the measured growth inhibition by drug alone reaches -0.1, counting equality as reaching it, for `CN(C)c1ccccc1CN1CCCN(Cc2ccccc2N(C)C)C1c1ccncc1`
OUTPUT: condition met
